# reported log10 of IC50; entries follow
Test Target: Mitogen-activated protein kinase kinase kinase 11 (Homo sapiens)
Sequence (Q16584 whole entry): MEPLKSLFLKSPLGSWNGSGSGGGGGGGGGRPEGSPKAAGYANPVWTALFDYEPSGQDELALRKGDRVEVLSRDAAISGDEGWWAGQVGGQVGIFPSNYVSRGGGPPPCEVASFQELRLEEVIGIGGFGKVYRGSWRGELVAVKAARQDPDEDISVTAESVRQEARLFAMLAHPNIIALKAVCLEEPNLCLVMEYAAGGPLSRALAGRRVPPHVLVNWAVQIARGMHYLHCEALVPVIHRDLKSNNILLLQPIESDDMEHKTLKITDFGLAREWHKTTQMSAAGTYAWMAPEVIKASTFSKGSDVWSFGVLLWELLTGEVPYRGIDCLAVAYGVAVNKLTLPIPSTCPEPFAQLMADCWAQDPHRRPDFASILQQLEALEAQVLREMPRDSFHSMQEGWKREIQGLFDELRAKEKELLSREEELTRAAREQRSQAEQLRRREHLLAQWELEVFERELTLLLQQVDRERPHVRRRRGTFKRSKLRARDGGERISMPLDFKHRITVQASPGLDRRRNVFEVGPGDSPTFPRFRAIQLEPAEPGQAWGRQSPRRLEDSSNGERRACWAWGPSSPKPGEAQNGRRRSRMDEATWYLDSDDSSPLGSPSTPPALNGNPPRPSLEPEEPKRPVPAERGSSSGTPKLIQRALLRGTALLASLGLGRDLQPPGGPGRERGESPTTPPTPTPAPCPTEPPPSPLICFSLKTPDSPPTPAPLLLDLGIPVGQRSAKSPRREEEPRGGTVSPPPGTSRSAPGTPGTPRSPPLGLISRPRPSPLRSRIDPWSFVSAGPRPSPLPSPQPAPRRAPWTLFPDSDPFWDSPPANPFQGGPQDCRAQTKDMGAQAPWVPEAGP
Test Method Notes: Inhibition of Mixed lineage kinase 3 (MLK3)
Values below are the log10 of the recorded IC50, with nM as the unit.

[[record]]
smiles_text = "CCCCSCc1ccc2c(c1)c1c3c(c4c5cc(CSCCCC)ccc5n5c4c1n2[C@H]1C[C@](O)(C(=O)OC)[C@]5(C)O1)CNC3=O"
test_target = "Mitogen-activated protein kinase kinase kinase 11 (Homo sapiens)"
readout_number = 2.16

[[record]]
smiles_text = "CCCSCc1ccc2c(c1)c1c3c(c4c5cc(CSCCC)ccc5n5c4c1n2[C@H]1C[C@](O)(C(=O)OC)[C@]5(C)O1)CNC3=O"
test_target = "Mitogen-activated protein kinase kinase kinase 11 (Homo sapiens)"
readout_number = 1.75


Request: # query: log10 of IC50 | item "COC(=O)[C@@]1(O)C[C@H]2O[C@]1(C)n1c3ccc(CSC(C)C)cc3c3c4c(c5c6cc(CSC(C)C)ccc6n2c5c31)C(=O)NC4" | system: Mitogen-activated protein kinase kinase kinase 11 (Homo sapiens)
Response: 1.49

Request: # query: log10 of IC50 | item "CCSCc1ccc2c(c1)c1c3c(c4c5ccccc5n5c4c1n2[C@@]1(C)O[C@@H]5C[C@]1(O)C(=O)OC)C(=O)NC3" | system: Mitogen-activated protein kinase kinase kinase 11 (Homo sapiens)
Response: 1.32

Request: # query: log10 of IC50 | item "CCSCc1ccc2c(c1)c1c3c(c4c5cc(CSCC)ccc5n5c4c1n2[C@H]1C[C@](O)(C(=O)OC)[C@]5(C)O1)CNC3=O" | system: Mitogen-activated protein kinase kinase kinase 11 (Homo sapiens)
Response: 1.36

----------
Test Target: Mitogen-activated protein kinase kinase kinase 11 (Homo sapiens)
Test Method Notes: Inhibition of Mixed lineage kinase 3 (MLK3)
# reported pIC50; entries follow
In plain terms, pIC50 is the concentration in mol/L turned into minus its base-10 logarithm.

For orientation, consider the following solved cases.
[[record]]
smiles_text = "CCSCc1ccc2c(c1)c1c3c(c4c5ccccc5n5c4c1n2[C@H]1C[C@](O)(C(=O)OC)[C@]5(C)O1)CNC3=O"
readout_number = 7.36

[[record]]
smiles_text = "COC(=O)[C@@]1(O)C[C@H]2O[C@]1(C)n1c3ccc(CSCCN(C)C)cc3c3c4c(c5c6cc(CSCCN(C)C)ccc6n2c5c31)C(=O)NC4"
readout_number = 6.91


Now turn to the next compound.
Request: Endpoint output: pIC50 of "COCc1ccc2c(c1)c1c3c(c4c5cc(COC)ccc5n5c4c1n2[C@H]1C[C@](O)(C(=O)OC)[C@]5(C)O1)CNC3=O" . Value?
Response: 7.96

----------
Test Target: Protein kinase C (PKC)
Test Method Notes: Inhibition of protein kinase C (PKC) from rat brain homogenate
Measure Name: log10(IC50) (log10 of the value in nM)
Values below are the log10 of the recorded IC50, with nM as the unit.

For orientation, consider the following solved cases.
[[record]]
smiles_text = "COC(=O)[C@@]1(O)C[C@H]2O[C@]1(C)n1c3ccc(CSC(C)C)cc3c3c4c(c5c6cc(CSC(C)C)ccc6n2c5c31)C(=O)NC4"
measure_name = "log10(IC50)"
readout_number = 2.99

[[record]]
smiles_text = "COC(=O)[C@@]1(O)C[C@H]2O[C@]1(C)n1c3ccc(CSCCN(C)C)cc3c3c4c(c5c6cc(CSCCN(C)C)ccc6n2c5c31)C(=O)NC4"
measure_name = "log10(IC50)"
readout_number = 3.20

[[record]]
smiles_text = "COC(=O)[C@@]1(O)C[C@H]2O[C@]1(C)n1c3ccc(CO)cc3c3c4c(c5c6cc(CO)ccc6n2c5c31)C(=O)NC4"
measure_name = "log10(IC50)"
readout_number = 0.48


Request: Endpoint output: log10(IC50) of "CCOCc1ccc2c(c1)c1c3c(c4c5cc(COCC)ccc5n5c4c1n2[C@H]1C[C@](O)(C(=O)OC)[C@]5(C)O1)CNC3=O" . Value?
Response: 3.41

Request: Endpoint output: log10(IC50) of "COCc1ccc2c(c1)c1c3c(c4c5cc(COC)ccc5n5c4c1n2[C@H]1C[C@](O)(C(=O)OC)[C@]5(C)O1)CNC3=O" . Value?
Response: 2.65

Request: Endpoint output: log10(IC50) of "CCSCc1ccc2c(c1)c1c3c(c4c5ccccc5n5c4c1n2[C@@]1(C)O[C@@H]5C[C@]1(O)C(=O)OC)C(=O)NC3" . Value?
Response: 2.60

Request: Endpoint output: log10(IC50) of "CCSCc1ccc2c(c1)c1c3c(c4c5ccccc5n5c4c1n2[C@H]1C[C@](O)(C(=O)OC)[C@]5(C)O1)CNC3=O" . Value?
Response: 2.35
